Measured inhibition by item
# targetDesc: Neuropeptide Y receptor type 5 (Rattus norvegicus) (UniProt Q63634)
# Sequence (Q63634 whole entry): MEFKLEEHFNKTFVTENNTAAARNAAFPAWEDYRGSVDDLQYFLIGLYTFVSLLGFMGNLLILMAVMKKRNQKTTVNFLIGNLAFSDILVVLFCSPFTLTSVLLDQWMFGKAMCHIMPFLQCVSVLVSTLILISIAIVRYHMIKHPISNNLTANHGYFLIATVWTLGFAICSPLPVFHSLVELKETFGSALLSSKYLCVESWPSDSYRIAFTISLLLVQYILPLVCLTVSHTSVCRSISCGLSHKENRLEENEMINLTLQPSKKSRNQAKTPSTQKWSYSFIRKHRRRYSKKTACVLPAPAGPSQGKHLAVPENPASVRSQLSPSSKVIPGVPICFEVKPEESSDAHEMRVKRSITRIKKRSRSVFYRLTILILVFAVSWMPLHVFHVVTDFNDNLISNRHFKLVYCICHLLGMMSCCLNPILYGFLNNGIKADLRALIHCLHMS
# test: Inhibition of PYY effect on forskolin-stimulated cyclic AMP formation in C6 cells expressing rat NPY Y5 receptor
# Type: functional, cell-based
# Parameters: concentration or dose not given beside the values
# conditionLabel: concentration not given here
Expressed in %, but write only the number.

The cases that follow already have their inhibition on record.
Problem: # query: inhibition of entry CC(=O)c1ccc(NC(=O)CN2CCC(N3C(=O)OCc4cc(Cl)ccc43)CC2)cc1
Result: 99.9

Problem: Can you check O=C(CN1CCC(N2C(=O)OCc3cc(F)ccc32)CC1)Nc1ccc2ncccc2c1 next?
Result: 93.3

Problem: What do you get for O=C(CN1CCC(N2C(=O)OCc3cc(Cl)ccc32)CC1)Nc1ccc(C(=O)c2ccccc2)cc1 ?
Result: 97.4

Further cases:
Problem: Endpoint output: inhibition of O=C(CN1CCC(N2C(=O)OCc3ccccc32)CC1)Nc1ccc(Oc2ccccc2)cc1 . Value?
Result: 100

Problem: Same question for Cc1cccc2c1N(C1CCN(CC(=O)Nc3ccc4c(c3)-c3ccccc3C4O)CC1)C(=O)OC2 (centres undefined) please.
Result: 100

Problem: Follow-up entry: CCn1c2ccccc2c2cc(NC(=O)CN3CCC(N4C(=O)OCc5cc(Cl)ccc54)CC3)ccc21
Result: 99.3

Problem: Another compound to check: O=C(CN1CCC(N2C(=O)OCc3ccccc32)CC1)Nc1ccc2c(c1)-c1ccccc1C2=O
Result: 100

Problem: Check CC(=O)c1ccc(NC(=O)CN2CCC(N3C(=O)OCc4ccccc43)CC2)cc1 too.
Result: 95.4

Problem: Cool, now CCn1c2ccccc2c2cc(NC(=O)CN3CCC(N4C(=O)OCc5cccc(C)c54)CC3)ccc21
Result: 96.9
